The reported numbers originate from paper PMC6553477.

# Setup conditions: monkey, in vivo, terminal half-life, DcNP ATV, plasma, macaques (Table 2)
Measured endpoint: half-life

Param item = COC(=O)N[C@H](C(=O)N[C@@H](Cc1ccccc1)[C@@H](O)CN(Cc1ccc(-c2ccccn2)cc1)NC(=O)[C@@H](NC(=O)OC)C(C)(C)C)C(C)(C)C ; retrieve measured half-life.
~20 days

---

Reported AUC values follow for various molecules
# Assay overview: PBMC intracellular drug concentrations after single subcutaneous injection
# Setup conditions: monkey, PBMC (intracellular), sc, AUCPBMC, ATV-RTV-TFV DcNP, single subcutaneous dose, macaques; geometric mean (95% CI)
API: value field is a number in µM·h; no unit string.

| Molecule | AUC / µM·h |
| --- | --- |
| COC(=O)N[C@H](C(=O)N[C@@H](Cc1ccccc1)[C@@H](O)CN(Cc1ccc(-c2ccccn2)cc1)NC(=O)[C@@H](NC(=O)OC)C(C)(C)C)C(C)(C)C [ATV, atazanavir] | 435 |

Now consider a different molecule.
Param item = CC(C)c1nc(CN(C)C(=O)N[C@H](C(=O)N[C@@H](Cc2ccccc2)C[C@H](O)[C@H](Cc2ccccc2)NC(=O)OCc2cncs2)C(C)C)cs1 [RTV, ritonavir] ; retrieve measured AUC.
85
